System: S. epidermidis
Assay: Shaking biofilm model (200 rpm), safranine staining
Format: cell-based
Details: Staphylococcus epidermidis; S. epidermidis, 20 h incubation; read-out: Shaking biofilm model % Remaining
Method: According to the static biofilm model, a given thiophenone 200 μmol/L was dissolved in 500 μl absolute ethanol and applied to wells of a standard 24 well microtiter plate. […] After incubation, the percentage of bacteria remaining was assessed by safranine staining of the biofilm. Bound safranine was released by acetic acid and optical density was measured in Synergy HT Multi-Detection Microplate Reader and compared to a control. […]
endpoint: activity at 200 µM (%)
Field format: number, assumed %, no unit text.

Exam item: Data request, read-out activity at 200 µM, for O=C1C=C/C(=C/Br)S1 [Thio101]
Marked response: 15

Exam item: Sample O=C1C=C/C(=C\Br)S1 [Thio102] — what was its activity at 200 µM?
Marked response: 103

Exam item: I am curious: what activity at 200 µM value has been reported for O=C1C=C/C(=C(/Br)c2ccccc2)S1 [Thio112] ?
Marked response: 59

Exam item: Need activity at 200 µM of O=C1C=C/C(=C/C(Br)Br)S1 [Thio107] , thanks.
Marked response: 93

Exam item: Could you share which activity at 200 µM value was measured for O=C1C=CC(=C(Br)Br)S1 [Thio106, 5-(dibromomethylene)thiophen-2(5H)-one] ?
Marked response: 27

Exam item: Which activity at 200 µM value belongs to O=C1C=C/C(=C/c2ccc(Br)s2)S1 [Thio302] ?
Marked response: 101

Exam item: What measured activity at 200 µM goes with COc1sc(/C=C2/C=CC(=O)S2)c(Br)c1Br [Thio305] ?
Marked response: 101

Exam item: Form field: reported activity at 200 µM of COc1ccc(C=C(Br)Br)s1 [Thio202, 2-(2,2-dibromovinyl)-5-methoxythiophene]
Marked response: 103

Exam item: Need activity at 200 µM of O=C1SC(=C(Br)Br)C=C1Br [Thio108] , thanks.
Marked response: 9

Exam item: Requested field: activity at 200 µM. Item: O=C1C=C/C(=C/c2cccs2)S1 [Thio301]
Marked response: 98

Exam item: activity at 200 µM lookup needed for O=C1C=C/C(=C(\Br)c2ccccc2)S1 [Thio111] , thanks.
Marked response: 50

Exam item: Given the entry COc1ccc(CC2(CO)C=CC(=O)S2)s1 (stereo not shown) [Thi401] , report its measured activity at 200 µM.
Marked response: 94

Exam item: Could you tell me which activity at 200 µM is on file for O=C1S/C(=C\Br)C=C1Br [Thio105] ?
Marked response: 18

---

test system: S. epidermidis; experiment: Shaking biofilm model (200 rpm), safranine staining; assay type: cell-based; conditions: Staphylococcus epidermidis; S. epidermidis, 20 h incubation; read-out: Shaking biofilm model % Remaining
Would you mind telling me the reported activity at 200 µM of each entry?

Exam item: GET /values?readout=activity at 200 µM&item= `O=C1S/C(=C\c2ccccc2)C=C1Br`
Marked response: 27%

Exam item: Look up activity at 200 µM for this molecule: `COc1ccc(C=O)s1`
Marked response: 101%

Exam item: I am curious: what activity at 200 µM value has been reported for O=C1C=C/C(=C/c2ccccc2)S1 [Thio109, (Z)-5-benzylidenethiophen-2(5H)-one] ?
Marked response: 107%

Exam item: Need activity at 200 µM, item `COc1ccc(/C=C2/C=CC(=O)S2)s1`
Marked response: 94%

Exam item: Dear colleague, I am looking for the recorded activity at 200 µM of the following molecule: `O=Cc1ccc(/C=C2/C=CC(=O)S2)s1`
Marked response: 91%

---

system: S. epidermidis; assay: Shaking biofilm model (200 rpm), safranine staining; type: cell-based; details: Staphylococcus epidermidis; S. epidermidis, 6 h incubation; read-out: Shaking biofilm model % Remaining
Threshold 70%: activity at 200 µM strictly smaller gives Satisfied, otherwise Not satisfied.

Exam item: Lab note: confirm whether the reported activity at 200 µM for this molecule is below 70%, equality not counting. molecule: `O=C1C=C/C(=C\Br)S1`
Marked response: Not satisfied

Exam item: Please indicate whether the reported activity at 200 µM of `O=C1C=C/C(=C/c2ccc(Br)s2)S1` is strictly below 70%.
Marked response: Not satisfied

Exam item: Is activity at 200 µM of `O=C1S/C(=C\c2ccccc2)C=C1Br` strictly below 70%?
Marked response: Satisfied

Exam item: Hi there! Is activity at 200 µM for `O=C1S/C(=C\Br)C=C1Br` below 70%, do you know?
Marked response: Satisfied

Exam item: Hi there! Is activity at 200 µM for `O=C1C=C/C(=C(\Br)c2ccccc2)S1` below 70%, do you know?
Marked response: Satisfied

Exam item: Here's an entry: `COc1sc(/C=C2/C=CC(=O)S2)c(Br)c1Br` . Is its activity at 200 µM below 70%?
Marked response: Satisfied

Exam item: Regarding `O=C1C=C/C(=C/c2cccs2)S1` , kindly confirm whether its activity at 200 µM is beneath 70%.
Marked response: Not satisfied

Exam item: Please indicate whether the reported activity at 200 µM of `COc1ccc(C=O)s1` is strictly below 70%.
Marked response: Not satisfied

Exam item: Consider the molecule `O=C1C=C/C(=C/C(Br)Br)S1` . Is its activity at 200 µM strictly less than 70%?
Marked response: Not satisfied

Exam item: Please determine if `COc1ccc(C=C(Br)Br)s1` is below 70% in terms of activity at 200 µM.
Marked response: Not satisfied

Exam item: State whether 70% exceeds activity at 200 µM recorded for O=C1C=C/C(=C/c2ccccc2)S1 [Thio109, (Z)-5-benzylidenethiophen-2(5H)-one] .
Marked response: Not satisfied

Exam item: Strictly below 70% in activity at 200 µM? COc1ccc(CC2(CO)C=CC(=O)S2)s1 (stereo not drawn)
Marked response: Not satisfied

Exam item: Decide: activity at 200 µM of `O=C1C=CC(=C(Br)Br)S1` strictly below 70%?
Marked response: Satisfied

Exam item: Item `O=C1SC(=C(Br)Br)C=C1Br` : activity at 200 µM beneath 70%, strictly?
Marked response: Satisfied

Exam item: Dear colleague, could you confirm whether activity at 200 µM of `O=C1C=C/C(=C(/Br)c2ccccc2)S1` falls below 70%? Thanks.
Marked response: Satisfied

Exam item: State whether 70% exceeds activity at 200 µM recorded for `O=Cc1ccc(/C=C2/C=CC(=O)S2)s1` .
Marked response: Not satisfied

Exam item: Would you kindly verify if activity at 200 µM of `O=C1C=C/C(=C/Br)S1` is strictly less than 70%?
Marked response: Satisfied
